All figures here come from PubChem BioAssay AID893.

Molecular target: 3-hydroxyacyl-CoA dehydrogenase type-2 (Homo sapiens)
Test: qHTS Assay for Inhibitors of HSD17B4, hydroxysteroid (17-beta) dehydrogenase 4;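 note: the protocol describes HADH2 (HSD17B10) and not the HSD17B4 of the title; nearly all actives have a fitted effect of over 70% in size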
Settings: recombinant HSD17B10, NADH fluorescence kinetic; series mostly up to 57.1 µM
The whole screen tested about 75,000 compounds, of which about 5,700 (7.6%) were called active. Another 7% or so got no clear call; they are omitted. This is one part of a sample in which actives are shown more often than they occur.
Property label: outcome

O=C1C(c2ccccn2)=[N+]([O-])c2ccccc21 | inactive
CCC(C)(C)N=C(NC#N)Nc1cccnc1 | inactive
O=C(O)c1ccc(NC(=O)C2CCCCC2)cc1 | inactive
COc1ccc(OC)c(S(=O)(=O)Nc2ccccc2F)c1 | inactive
O=C(Nc1ccncc1)c1c(F)cccc1F | inactive

outcome in this record for COc1ccc(-n2c(SC)nc(O)cc2=O)cc1 : inactive

outcome in this record for CCCC[C@@H]1C[C@H]1C(NC(=O)c1ccc(-c2ccccc2)cc1)c1ccc(-c2ccccc2)cc1 (some centres not stated) : inactive

###

Biological target: 3-hydroxyacyl-CoA dehydrogenase type-2 (Homo sapiens)
Experiment: qHTS Assay for Inhibitors of HSD17B4, hydroxysteroid (17-beta) dehydrogenase 4;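 note: the protocol describes HADH2 (HSD17B10) and not the HSD17B4 of the title; nearly all actives have a fitted effect of over 70% in size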
Settings: recombinant HSD17B10, NADH fluorescence kinetic; series mostly up to 57.1 µM
Out of some 75,000 compounds screened, about 5,700 (7.6%) were called active. Not shown: some 7% with an inconclusive outcome. The call rests on the fitted dose curve; in most records, active means well fitted inhibition curve with a large enough effect; inconclusive means small, poorly fitted or top-dose-only effect; inactive means no such curve, though single readings can be large or run the other way. Shown is part of a subset that was picked to be rich in actives.
A correct response names exactly one class from active, inactive

Outcome? COC(=O)[C@@]1(Cc2ccccc2)[C@H]2c3cc(C(=O)N4CCCC4)n(Cc4ccc(C)o4)c3C[C@H]2CN1C(=O)c1ccccc1
inactive

Outcome? O=c1[nH]c(-c2cccs2)nc2ccccc12
inactive

Outcome? COc1ccccc1-c1nnc(SCC(=O)Nc2cc(C)on2)o1
inactive

Outcome? COc1cc(-c2nc(-c3ccncc3)no2)cc(OC)c1OC
inactive

Outcome? Cc1nc(-c2ccc(NC(=O)c3cccs3)cc2)cs1
active

Outcome? O=C(O)Cc1ccc(NC(=O)c2cccs2)cc1
inactive

Outcome? O=C(OCCN1CCOCC1)C1(c2ccccc2)CCCCC1
inactive

Outcome? Cc1ccccc1CSc1nnc(-c2ccccn2)n1N
inactive

Outcome? C=CCSc1nnc(Cn2c(=O)sc3ccccc32)n1C
inactive

Outcome? Brc1cc(Br)c(Oc2cc(Br)c(Br)cc2Br)cc1Br
inactive

Outcome? CCc1c(C)nc2cc(-c3cccs3)[nH]n2c1=O
active

Outcome? Cc1cccc(NC(=O)c2ccc3ccccc3n2)n1
inactive

Outcome? Cc1nc2nc(COc3ccccc3)[nH]n2c(=O)c1Cc1ccccc1
inactive

Outcome? CCCCCCCCCCCC(=O)O
inactive

Outcome? O=C(O)CCCCC(=O)O
inactive

Outcome? Nc1nc2[nH]c(=O)c(=O)[nH]c2c(=O)[nH]1
inactive

Outcome? COc1ccc(Br)cc1S(=O)(=O)N1CCN=C1C
inactive

Outcome? CCC(=O)Oc1cccc(C(=O)Nc2ccc(-c3nnc(-c4ccco4)o3)cc2)c1
active

Outcome? Cc1cccc(NC(=O)CSC(N)=O)c1C
active

Outcome? Cc1ccc(C)n1C(Cc1ccccc1)C(=O)O (stereo not given)
active

###

Target: 3-hydroxyacyl-CoA dehydrogenase type-2 (Homo sapiens)
Assay: qHTS Assay for Inhibitors of HSD17B4, hydroxysteroid (17-beta) dehydrogenase 4;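 note: the protocol describes HADH2 (HSD17B10) and not the HSD17B4 of the title; nearly all actives have a fitted effect of over 70% in size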
Settings: recombinant HSD17B10, NADH fluorescence kinetic; series mostly up to 57.1 µM
Among all 75,000 compounds or so, about 5,700 (7.6%) were called active. Roughly 7% stayed inconclusive and do not appear here. What follows is part of a selection rich in actives, with near analogues and random picks from the rest.
Property label: outcome

CCN1C(=O)C(C(=O)NC(C)c2ccccc2)C2CC1(C)Oc1ccccc12 (centres undefined) | inactive
CCCCn1c(CCCNC(=O)CC)nc2ccccc21 | inactive
c1nnc2c3c4c(sc3ncn12)CCC4 | inactive
O=S(=O)(CCc1nc2ccccc2o1)c1ccc(Cl)cc1 | inactive
